Exercise: state measured IC50 for each of the molecules provided.
Target: ER (Homo sapiens, UniProt P03372)
Construct: expressed in transfected cells; host or cells: CV-1 cells
Sequence (P03372 whole entry): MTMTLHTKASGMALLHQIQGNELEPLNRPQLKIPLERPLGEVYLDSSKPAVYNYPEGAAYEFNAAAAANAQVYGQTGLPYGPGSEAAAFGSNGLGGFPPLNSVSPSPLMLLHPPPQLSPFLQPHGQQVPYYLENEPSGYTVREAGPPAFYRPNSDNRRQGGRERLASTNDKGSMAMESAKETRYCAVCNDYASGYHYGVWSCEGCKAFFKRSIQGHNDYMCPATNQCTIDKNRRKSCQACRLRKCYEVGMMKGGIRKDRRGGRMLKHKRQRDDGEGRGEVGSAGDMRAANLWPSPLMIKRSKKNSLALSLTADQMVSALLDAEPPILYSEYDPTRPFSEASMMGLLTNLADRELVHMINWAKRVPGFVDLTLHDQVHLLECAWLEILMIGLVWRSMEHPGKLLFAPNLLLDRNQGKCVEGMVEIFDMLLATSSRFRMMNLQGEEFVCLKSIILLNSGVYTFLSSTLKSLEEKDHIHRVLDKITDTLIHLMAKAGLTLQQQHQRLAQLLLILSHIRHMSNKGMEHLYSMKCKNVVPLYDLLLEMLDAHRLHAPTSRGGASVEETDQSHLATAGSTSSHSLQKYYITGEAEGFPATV
Assay: Co-transfection assay, ER antagonist mode
Format: cell-based

Report IC50 for CC12CCCN1c1cc3nc(O)cc(C(F)(F)F)c3cc1CC2 (racemic) please.
> 10 µM

Note, next up: CC1(C)CCc2cc3c(C(F)(F)F)c(F)c(=O)[nH]c3cc2N1
0.034 µM

Note, next up: Cn1c(=O)cc(C(F)(F)F)c2cc3c(cc21)N1CCCC1(C)CC3 (racemic)
> 10 µM

Note, next up: CC12CCCN1c1cc3[nH]c(=O)c(F)c(C(F)(F)F)c3cc1CC2 (racemic)
> 10 µM

###

Exercise: state measured EC50 for each of the compounds provided.
Target: human AR (Homo sapiens, UniProt P10275)
Construct: expressed in transfected cells; host or cells: CV-1 cells (African green monkey kidney fibroblasts), transient calcium phosphate transfection
Sequence (P10275 whole entry): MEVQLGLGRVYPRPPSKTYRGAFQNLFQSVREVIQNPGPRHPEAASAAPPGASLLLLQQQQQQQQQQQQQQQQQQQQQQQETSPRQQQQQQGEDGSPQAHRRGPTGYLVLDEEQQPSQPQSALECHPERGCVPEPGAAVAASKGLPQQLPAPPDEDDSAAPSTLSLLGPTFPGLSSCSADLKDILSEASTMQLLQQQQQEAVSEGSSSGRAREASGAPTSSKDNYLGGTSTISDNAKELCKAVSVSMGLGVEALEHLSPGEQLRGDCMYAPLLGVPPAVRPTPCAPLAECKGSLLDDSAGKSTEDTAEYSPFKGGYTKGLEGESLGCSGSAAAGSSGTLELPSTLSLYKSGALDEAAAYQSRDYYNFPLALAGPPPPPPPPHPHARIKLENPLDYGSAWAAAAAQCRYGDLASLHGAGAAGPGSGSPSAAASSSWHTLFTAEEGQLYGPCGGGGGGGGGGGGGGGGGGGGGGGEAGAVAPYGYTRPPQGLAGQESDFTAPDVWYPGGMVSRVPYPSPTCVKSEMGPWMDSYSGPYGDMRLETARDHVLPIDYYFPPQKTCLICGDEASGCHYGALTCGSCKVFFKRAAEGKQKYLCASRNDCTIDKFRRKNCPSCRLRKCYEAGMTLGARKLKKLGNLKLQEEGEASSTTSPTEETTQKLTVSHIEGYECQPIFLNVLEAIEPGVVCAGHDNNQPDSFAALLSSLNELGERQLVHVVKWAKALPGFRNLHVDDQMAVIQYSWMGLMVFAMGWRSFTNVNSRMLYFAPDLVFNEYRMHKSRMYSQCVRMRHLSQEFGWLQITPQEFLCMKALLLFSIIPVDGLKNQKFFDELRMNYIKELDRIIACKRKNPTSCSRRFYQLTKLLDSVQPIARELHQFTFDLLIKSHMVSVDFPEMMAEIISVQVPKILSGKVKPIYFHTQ
Experiment: cell-based
Type: cell-based
Conditions: read-out: AR Potency Agon; Table 2; na = not active
Excerpt: The co-transfection assay provides a method for identifying functional agonists and partial agonists which mimic, or antagonists which inhibit, the effect of native hormones, and quantifying their activity for responsive IR proteins. […] Importantly, activity in the co-transfection assay correlates very well with known in vivo activity, such that the co-transfection assay functions as a qualitative and quantitative predictor of a tested compounds in vivo pharmacology. […]

Item: CC12CCCN1c1cc3[nH]c(=O)c(F)c(C(F)(F)F)c3cc1CC2 (racemic) Test system: human AR (Homo sapiens, UniProt P10275) Read-out: EC50 Value: ?
> 10 µM

Note, next up: Cn1c(=O)c(F)c(C(F)(F)F)c2cc3c(cc21)N1CCCC1(C)CC3 (racemic)
> 10 µM

###

Molecular target: human AR (Homo sapiens)
Assay: cell-based
assay-metric: log10 IC50 (log10 of the value in nM)
Values are log10 of IC50 in nM.

Report log10 IC50 for CC12CCCN1c1cc3nc(O)cc(C(F)(F)F)c3cc1CC2 (racemic) please.
2.56

Note, next up: Cn1c(=O)c(F)c(C(F)(F)F)c2cc3c(cc21)NC(C)(C)CC3
1.67

Note, next up: CN1c2cc3c(cc2CCC1(C)C)c(C(F)(F)F)c(F)c(=O)n3C
1.08

Note, next up: CC12CCCN1c1cc3[nH]c(=O)c(F)c(C(F)(F)F)c3cc1CC2 (racemic)
1.46

Note, next up: CCC1(CC)CCc2cc3c(C(F)(F)F)c(F)c(=O)[nH]c3cc2N1
1.40

Note, next up: Cc1c2c(cc3c(C(F)(F)F)c(F)c(=O)[nH]c13)C(C)CC(C)(C)N2 (stereo not shown)
2.00

Note, next up: CC1(C)CCc2cc3c(C(F)F)c(F)c(=O)[nH]c3cc2N1
1.78

###

Target: human AR (Homo sapiens)
Construct: expressed in transfected cells; host or cells: CV-1 cells (African green monkey kidney fibroblasts), transient calcium phosphate transfection
Test: cell-based
Assay type: binding
Conditions: read-out: AR Binding Ki
assay-metric: Ki (nM)
State just the number; it will be interpreted in nM.

Report Ki for CC12CCCN1c1cc3nc(O)cc(C(F)(F)F)c3cc1CC2 (racemic) [Compound 101] please.
169
